EXPERIMENTAL_TARGET: recombinant human BAFF (human, UniProt Q9Y275 134-285)
TEST_SUMMARY: cell-based or functional assay
PROPERTY: BAFF IC50 (pM)
Could you give me the number in pM? Just the number is fine.

Inquiry: For 26 TACI CRD2-Fc (Fc fusion) SLSCRKEQGEYYDHLLRDCISCASICGQHPKQCADFCENKLRSGSGGGGSEPKSSDKTHTCPPCPAPEAEGAPSVFLFPPKPKDTLMISRTPEVTCVVVDVSHEDPEVKFNWYVDGVEVHNAKTKPREEQYNSTYRVVSVLTVLHQDWLNGKEYKCKVSNKALPAPIEKTISKAKGQPREPQVYTLPPSRDELTKNQVSLTCLVKGFYPSDIAVEWESNGQPENNYKTTPPVLDSDGSFFLYSKLTVDKSRWQQGNVFSCSVMHEALHNHYTQKSLSLSPG , what is its reported BAFF IC50 (pM)?
Reply text: 1550
